# Tested on: SR leukemia
# assay notes: NCI tumour cell line growth inhibition, 48 h
Answer each item with its documented TGI.

Lookup: Would you mind telling me what TGI value was observed for Cc1cn(C2OC(C)(CO)C(O)C2O)c(=O)[nH]c1=O (configuration not stated) ?
Found: > 100 µM

Lookup: # repeat for CC(=O)O[C@]12CCCCCC1C1(O)C(O)CCC[C@H]12 (some centres not stated)
Found: > 100 µM

Lookup: # repeat for CCCCCCCCCCN=C(c1ccc(N(C)C)cc1)c1ccc(N(C)C)cc1
Found: > 46.8 µM

Lookup: # repeat for OC(CN1CC1)C(O)CN1CC1 (configuration not stated)
Found: > 50 µg/mL

Lookup: # repeat for O=C/C(=C(/Cl)c1ccc(O)cc1)c1ccccc1
Found: > 100 µM

Lookup: # repeat for CC(=O)NNc1nc(C)c(C(=O)NNC(=O)C(=O)Nc2nc3ccc([N+](=O)[O-])cc3s2)s1
Found: > 72.2 µM

Lookup: # repeat for CC1(c2ccccc2)CC(c2ccccc2)=NO1 (configuration not stated)
Found: > 100 µM

Lookup: # repeat for C[C@H](Cn1ncnn1)Nc1ncc2cc(Oc3ccc(F)cc3F)c(=O)n(C)c2n1
Found: > 25 µM

Lookup: # repeat for CCN(CCO)CC1COc2ccccc2O1 (configuration not stated)
Found: > 100 µM

Lookup: # repeat for O=S(=O)(CCOCc1ccc(-c2ccc3ncnc(Nc4ccc(OCc5cccc(F)c5)c(Cl)c4)c3c2)o1)c1ccccc1
Found: > 25 µM

Lookup: # repeat for O=C1C=C(O)c2[nH]c(=O)ccc2C1=O
Found: > 100 µM

Lookup: # repeat for COCOc1ccc(Cn2c(=O)n(C)c(=O)c3c2ncn3C)cc1[N+](=O)[O-]
Found: > 100 µM

---

Answer each item with its documented TGI.
# System: 786-0 renal
# assay notes: NCI tumour cell line growth inhibition, 48 h

Lookup: Would you mind telling me what TGI value was observed for CCN(C(=S)N[C@@H](Cc1ccccc1)C(=O)N[C@@H](CC(C)C)C(=O)OC)c1ccccc1 ?
Found: > 100 µM

Lookup: # repeat for CC1=C(C(=O)Nc2ccccc2C)C(/C=C/c2ccccc2)C(C(=O)Nc2ccccc2C)=C(C)N1
Found: > 100 µM

Lookup: # repeat for CC1(C)OC2COC3(CNO)OC(C)(C)OC3C2O1 (stereo not given)
Found: > 100 µM

Lookup: # repeat for OB1OCc2cc(/C=C/c3cccc(C(F)(F)F)c3)ccc21
Found: 10.1 µM

Lookup: # repeat for C=CCSc1nc2ccccc2c(=O)n1Cc1ccco1
Found: > 100 µM

---

# Tested on: HT29 colon
# assay notes: NCI tumour cell line growth inhibition, 48 h
Answer each item with its documented TGI.

Lookup: Would you mind telling me what TGI value was observed for CCOC(=O)c1c(-c2ccc(OC)cc2)c(C#N)c(=S)n(C2OC(COC(C)=O)C(OC(C)=O)C(OC(C)=O)C2OC(C)=O)c1C (stereo unspecified) ?
Found: > 100 µM

Lookup: # repeat for CCCCC1c2c([nH]c3ccccc23)C2C(=O)N(c3ccc(OC)cc3)C(=O)C2C1CCC (stereo unspecified)
Found: 8.52 µM

Lookup: # repeat for c1ccc2c(c1)NC(C1OC3CCCN3C1C1Nc3ccccc3S1)S2 (stereo unspecified)
Found: > 100 µM

Lookup: # repeat for C=CCn1c(=O)ccn(COCCO)c1=O
Found: > 100 µM

Lookup: # repeat for CCN(C(=S)N[C@@H](Cc1ccccc1)C(=O)N[C@@H](CC(C)C)C(=O)OC)c1ccccc1
Found: > 100 µM

Lookup: # repeat for CCOC(=O)C(=O)Nc1ccccc1C(F)(F)F
Found: > 100 µM

---

# Tested on: SW-620 colon
# assay notes: NCI tumour cell line growth inhibition, 48 h
Answer each item with its documented GI50.

Lookup: Would you mind telling me what GI50 value was observed for CC1CCCc2c1nn(C(=O)/C=C(\N)c1ccccc1)c2N (centres undefined) ?
Found: 6.71 µM

Lookup: # repeat for C[C@H](Cn1ncnn1)Nc1ncc2cc(Oc3ccc(F)cc3F)c(=O)n(C)c2n1
Found: > 25 µM

Lookup: # repeat for O=S(=O)(CCOCc1ccc(-c2ccc3ncnc(Nc4ccc(OCc5cccc(F)c5)c(Cl)c4)c3c2)o1)c1ccccc1
Found: > 25 µM

Lookup: # repeat for c1ccc2nc3c(cc4ccccn43)nc2c1
Found: > 100 µM

---

Answer each item with its documented TGI.
# Test system: SNB-78 CNS
# assay notes: NCI tumour cell line growth inhibition, 48 h

Lookup: Would you mind telling me what TGI value was observed for O=C1C=C(O)c2[nH]c(=O)ccc2C1=O ?
Found: > 100 µM

Lookup: # repeat for O=C/C(=C(/Cl)c1ccc(O)cc1)c1ccccc1
Found: > 82.9 µM

Lookup: # repeat for CC(C)c1ccccc1NC(=O)/C(Cl)=C1/Sc2ccccc2NC1=O
Found: > 100 µM

Lookup: # repeat for Cc1ccccc1Nc1nc2c(s1)C(=O)c1ccccc1C2=O
Found: > 64.8 µM

Lookup: # repeat for NC(=O)/C=C/C(=O)O
Found: > 5000 µM

---

Answer each item with its documented TGI.
# System: NCI/ADR-RES ovarian
# assay notes: NCI tumour cell line growth inhibition, 48 h
Give your result in µM as a bare value.

Lookup: Would you mind telling me what TGI value was observed for CC1CC[C@@]2(OC1)OC1C[C@H]3[C@@H]4CC[C@H]5CC(OC6OC(CO)C(OC7OC(CO)C(O)C(O)C7OC7OC(CO)C(O)C(O)C7O)C(O)C6O)CCC5(C)[C@H]4CCC3(C)C1[C@@H]2C (some centres undefined) ?
Found: 13.8

Lookup: # repeat for CC[C@H]1CN2CCc3cc(OC)c(OC)cc3[C@@H]2C[C@@H]1C[C@H]1NCCc2cc(OC)c(OC)cc21
Found: 0.502

Lookup: # repeat for CC1CCCc2c1nn(C(=O)/C=C(\N)c1ccccc1)c2N (centres undefined)
Found: 39.4

Lookup: # repeat for Cc1c(S(=O)(=O)/N=C(\N)Nc2ccc(Cl)cc2)sc2ccc(Cl)cc12
Found: 47.1

Lookup: # repeat for COc1ccccc1/C=C/C(=O)/C=C/c1ccccc1O
Found: 15

---

# Test system: HS 578T breast
# assay notes: NCI tumour cell line growth inhibition, 48 h
observed property: TGI (µM)
Give your result in µM as a bare value.

Lookup: Write down the reported TGI of CCC(=C(c1ccc(OCCCN(C)C)cc1)c1ccc(OCCCN(C)C)cc1)c1ccc(Cl)cc1 , test system: HS 578T breast.
Found: 5.35

Lookup: # repeat for O=C1C[C@H](Sc2ccccc2)C2(OCCO2)[C@@H](Sc2ccccc2)C1
Found: 5.85

---

Answer each item with its documented TGI.
# Tested on: A498 renal
# assay notes: NCI tumour cell line growth inhibition, 48 h

Lookup: Would you mind telling me what TGI value was observed for CS(=O)(=O)OCCn1c(=O)n(CCOS(C)(=O)=O)c(=O)n(CCOS(C)(=O)=O)c1=O ?
Found: > 100 µM

Lookup: # repeat for N#CCCN(CCC#N)c1ccc(/C=C2\N=C(c3ccccc3)N(c3ccc(Cl)cc3)C2=O)cc1
Found: > 100 µM

Lookup: # repeat for CC1CCCc2c1nn(C(=O)/C=C(\N)c1ccccc1)c2N (centres undefined)
Found: 90.5 µM

Lookup: # repeat for Cc1nn(C(=O)Cc2ccccc2)c2c1C(c1ccc(O)cc1)SC(N)=N2 (centres undefined)
Found: > 100 µM

---

# Tested on: HOP-18 NSCLC
# assay notes: NCI tumour cell line growth inhibition, 48 h
observed property: TGI

Lookup: Would you mind telling me what TGI value was observed for CCOC(=O)/C=C(\C)c1ccc(C)cc1C ?
Found: > 100 µM

Lookup: # repeat for O=S(=O)(O)c1cc2ccc1/C=C\c1ccc(cc1S(=O)(=O)O)N=Nc1ccc(c(S(=O)(=O)O)c1)/C=C\c1ccc(cc1S(=O)(=O)O)N=N2
Found: > 100 µM

Lookup: # repeat for CC1(c2ccccc2)CC(c2ccccc2)=NO1 (stereo not drawn)
Found: > 100 µM

Lookup: # repeat for CC(=O)O[C@]12CCCCCC1C1(O)C(O)CCC[C@H]12 (stereo partly drawn)
Found: > 100 µM

Lookup: # repeat for COc1c(Br)cc(Br)c(OC)c1-c1[nH]c(Br)c(Br)c1Br
Found: 9.05 µM

Lookup: # repeat for Cc1nnc(N/N=C(/C(=O)C(C#N)c2ccccc2)C(C#N)c2ccccc2)n1N (stereo not drawn)
Found: 28.6 µM

Lookup: # repeat for C[n+]1c2ccccc2cc2c(CNC(CCCN=C(N)N)C(=O)O)cccc21 (stereo not drawn)
Found: 15.5 µM

Lookup: # repeat for O=C/C(=C(/Cl)c1ccc(O)cc1)c1ccccc1
Found: > 31.6 µM

---

# Tested on: SK-MEL-5 melanoma
# assay notes: NCI tumour cell line growth inhibition, 48 h
observed property: TGI (µM)
Give your result in µM as a bare value.

Lookup: Would you mind telling me what TGI value was observed for CCOC1Oc2ccccc2-c2oc(=O)c(Sc3ccc(C)cc3)cc21 (stereo not given) ?
Found: 95.3

Lookup: # repeat for Cc1cc(Nc2nc(SCc3ccc(C(=O)Nc4ccc(F)cc4N)cc3)nn3cccc23)n[nH]1
Found: 2.43

Lookup: # repeat for COc1cc(C2CC(C)(Nc3ccccc3)Oc3cc4c(cc32)OCO4)cc(OC)c1OC (stereo not given)
Found: 8.01

Lookup: # repeat for O=C(CNc1ccccc1Cl)Nn1c(-c2ccccc2)nc2ccccc2c1=O
Found: 21.8

Lookup: # repeat for CC1CCCc2c1nn(C(=O)/C=C(\N)c1ccccc1)c2N (stereo not given)
Found: 45.7

Lookup: # repeat for O=C(NCCN1CCOCC1)c1ccc2cc(C(=O)N3CC(CCl)c4ccc([N+](=O)[O-])cc43)[nH]c2c1 (stereo not given)
Found: 4.73

Lookup: # repeat for COc1nc(C#CCC(C)O)nc(OC)n1 (stereo not given)
Found: 34.7

Ref: PubChem BioAssay (NCI)
